As shown below, each of these compounds has a reported GI% value.
- Tested on: HCT-15
- method_description: NCI60 antitumor screening
- Format: cell-based, human
- protocol_conditions: 10 μM one-dose
Report only the number, with the unit % understood.

Check out these entries, answers already filled in.
N#Cc1c(-c2ccc(F)cc2)nc(SCc2ccc([N+](=O)[O-])cc2)[nH]c1=O :: 13.42
N#Cc1c(Cl)nc(SCc2ccc([N+](=O)[O-])cc2)nc1-c1ccc(F)cc1 :: 45.64

Under HCT-15: report GI% of Cc1ccc(CSc2nc(Cl)c(C#N)c(-c3ccc(F)cc3)n2)cc1 .
24.97

Under HCT-15: report GI% of N#Cc1c(-c2ccc(F)cc2)nc(SCc2ccc(F)cc2)nc1N1CCOCC1 .
20.05

Under HCT-15: report GI% of N#Cc1c(Cl)nc(SCc2ccc(F)cc2)nc1-c1ccc(F)cc1 .
13.00

Under HCT-15: report GI% of Cc1ccc(CSc2nc(-c3ccc(F)cc3)c(C#N)c(=O)[nH]2)cc1 .
15.77

Under HCT-15: report GI% of N#Cc1c(-c2ccc(F)cc2)nc(SCc2ccc([N+](=O)[O-])cc2)nc1N1CCOCC1 .
27.19

----------
- Tested on: KM12
- method_description: NCI60 antitumor screening
- Type: cell-based, human
- protocol_conditions: Homo sapiens; 10 μM single dose; KM12 (colon cancer); read-out: growth inhibition percent (GI%)
endpoint_label: inhibition at 10 µM

Specify reported inhibition at 10 µM for the compound shown: Cc1ccc(CSc2nc(-c3ccc(F)cc3)c(C#N)c(N3CCNCC3)n2)cc1
< 10%

----------
- Test system: SF-539
- method_description: NCI60 antitumor screening
- Format: cell-based, human
- protocol_conditions: 10 μM one-dose
endpoint_label: GI%

Cc1ccc(CSc2nc(-c3ccc(F)cc3)c(C#N)c(=O)[nH]2)cc1 :: — (GI% < 10)
N#Cc1c(Cl)nc(SCc2ccc(F)cc2)nc1-c1ccc(F)cc1 :: — (GI% < 10)
N#Cc1c(-c2ccc(F)cc2)nc(SCc2ccc([N+](=O)[O-])cc2)[nH]c1=O :: — (GI% < 10)

----------
- System: SK-MEL-2
- method_description: NCI60 antitumor screening
- Assay type: cell-based, human
- protocol_conditions: Homo sapiens; 10 μM single dose; SK-MEL-2 (melanoma); read-out: growth inhibition percent (GI%)
As shown below, each of these compounds has a reported inhibition at 10 µM value.

N#Cc1c(-c2ccc(F)cc2)nc(SCc2ccc([N+](=O)[O-])cc2)nc1N1CCNCC1 :: < 10%

Specify reported inhibition at 10 µM for the compound shown: N#Cc1c(-c2ccc(F)cc2)nc(SCc2ccc(F)cc2)nc1N1CCNCC1
> 100%

Specify reported inhibition at 10 µM for the compound shown: CN1CCN(c2nc(SCc3ccc(F)cc3)nc(-c3ccc(F)cc3)c2C#N)CC1
< 10%

Specify reported inhibition at 10 µM for the compound shown: N#Cc1c(-c2ccc(F)cc2)nc(SCc2ccc([N+](=O)[O-])cc2)nc1N1CCN(c2ccccc2)CC1
< 10%

Specify reported inhibition at 10 µM for the compound shown: N#Cc1c(-c2ccc(F)cc2)nc(SCc2ccc(F)cc2)nc1N1CCN(c2ccccc2)CC1
10.6%

Specify reported inhibition at 10 µM for the compound shown: N#Cc1c(-c2ccc(F)cc2)nc(SCc2ccccc2)nc1N1CCNCC1
> 100%

Specify reported inhibition at 10 µM for the compound shown: N#Cc1c(-c2ccc(F)cc2)nc(SCc2ccccc2)nc1N1CCN(c2ccccc2)CC1
< 10%

Specify reported inhibition at 10 µM for the compound shown: CN1CCN(c2nc(SCc3ccccc3)nc(-c3ccc(F)cc3)c2C#N)CC1
< 10%

Specify reported inhibition at 10 µM for the compound shown: Cc1ccc(CSc2nc(-c3ccc(F)cc3)c(C#N)c(N3CCN(C)CC3)n2)cc1
< 10%

Specify reported inhibition at 10 µM for the compound shown: Cc1ccc(CSc2nc(-c3ccc(F)cc3)c(C#N)c(N3CCN(c4ccccc4)CC3)n2)cc1
15.1%

Specify reported inhibition at 10 µM for the compound shown: Cc1ccc(CSc2nc(-c3ccc(F)cc3)c(C#N)c(N3CCNCC3)n2)cc1
< 10%
